system: A498 renal; assay: NCI tumour cell line growth inhibition, 48 h; in the data active = GI50 below about 0.43 µM; inactive = the rest
Classes used: 1 for active, 0 for inactive

1) COC1(C(=O)N[C@@H](C)c2ccc(-n3cc(F)cn3)nc2)CCC(c2nc(C)cc(Nc3cc(C)[nH]n3)n2)CC1 (stereo partly drawn)    1
2) CC(C)(C)C[C@H]1NC(C(=O)NCC[C@H](O)CO)[C@H](c2cccc(Cl)c2)[C@@]12C(=O)Nc1cc(Cl)c(F)cc12 (stereo partly drawn)    0
3) C=C1C(=O)O[C@H]2[C@H]1CC/C(COC(=O)NCc1ccccc1OC)=C\CC[C@@]1(C)O[C@@H]21    0
4) CN(CCCN)CCCNc1nc2ccccc2c2[nH]c3ccccc3c12    0
5) CC/C=C\C=C/C(=O)N/C=C/CC1Cc2cccc(O)c2C(=O)O1 (stereo not drawn)    0
6) Cc1[c-]onc1C.Cc1[c-]onc1C.[Ag].[Ag].[NH-]S(=O)(=O)c1ccc(N=Nc2cc(N=Nc3ccc(S([NH-])(=O)=O)cc3)c3c(NC(=O)C(Cl)Cl)cccc3c2OC(=O)C(Cl)Cl)cc1    0
7) O=C1c2ccccc2-c2c1c1ccccc1c(=O)n2CCCNCCCNCCCn1c2c(c3ccccc3c1=O)C(=O)c1ccccc1-2    0
8) CCCCCn1c(=N)n(CC(O)COc2cccc(C)c2)c2ccccc21 (stereo not drawn)    0
9) COC(=O)[C@H](Cc1cn(C)cn1)NC(=O)[C@H](Cc1c[nH]c2ccccc12)NC(=O)Nc1cc(C(F)(F)F)cc(C(F)(F)F)c1    0
10) CN1CCN(CCc2cccc(C(=O)c3cnn(-c4ccc(F)cc4)c3N)c2)CC1    0
11) Nc1c(C(=O)Nc2cccc([N+](=O)[O-])c2)sc2nc3c(cc12)C(O)CCC3 (stereo not drawn)    0
12) COc1ccc(C(=O)/C=C/c2ccc(/C=C/c3cc(OC)c(OC)c(OC)c3)cc2)cc1    0
13) CCN(Cc1ccc(F)c(F)c1)c1ccc(CO)c(Cl)c1    1

* * *

Quick reference: TGI of the listed items.
test system: EKVX NSCLC; test: NCI tumour cell line growth inhibition, 48 h
experimental endpoint: TGI (µM)

1. C=C1C(=O)O[C@H]2[C@H]1CC/C(COC(=O)NCc1ccccc1OC)=C\CC[C@@]1(C)O[C@@H]21    6.39
2. C[C@@H](C(=O)Nc1ccc(Cl)cc1)C1CCC(c2ccnc3ccc(F)cc23)CC1 (some centres undefined)    61.6
3. CCOC1CC(=O)c2c(Br)sc(Br)c21 (centres undefined)    42.7
4. O=C(Nc1cccc2cnccc12)c1cc2c(cc1Cl)Sc1nccn1S2(=O)=O    52.8

* * *

Quick reference: TGI of the listed items.
system: MDA-N; assay: NCI tumour cell line growth inhibition, 48 h
experimental endpoint: TGI

1. CCN(CC)CCn1ccc(=O)c2cc3c(=O)ccn(CCN(CC)CC)c3c(C)c21    18 µM
2. O=C1/C(=C/c2ccccc2S)N=C(c2ccccc2)N1c1nc2ccc(Sc3ccccc3)cc2[nH]1    34.4 µM
3. CCC[C@H]1C(=O)N=C(N)N1C(=O)OCc1ccccc1    > 100 µM
4. O=C1C(c2c(O)[nH]c3ccc(S(=O)(=O)O)cc23)=Nc2ccccc21    > 100 µM
5. Nc1cc2cccc[n+]2c2cc(Cl)ccc12    38.8 µM
6. COc1ccc(N2C(=O)c3c4c(c5c([nH]c6ncccc65)c3C2=O)CCC(C(C)(C)C)C4)cc1 (stereo unspecified)    > 100 µM
7. C1CCSCCCCSCCCCSCCCCSC1    > 100 µM
8. Nc1nn2c(C(Br)Br)cc(C(Br)Br)nc2c1[N+](=O)[O-]    2.26 µM
9. O=[N+]([O-])C(=C(N1CCCCC1)N1CCCCC1)/C(Cl)=C(\Cl)Br    > 100 µM
10. NC(CSCc1ccccc1)C(=O)O (stereo unspecified)    > 100 µM
11. CCCCOC(C)(C)/C=C/C(O)[C@](C)(O)[C@H]1[C@H](O)C[C@@]2(C)[C@@H]3CCc4c(cc(OC5OC(CO)C(O)C(O)C5O)c(O)c4C)C3(C)C(=O)C[C@]12C (stereo partly specified)    > 100 µM
12. Nc1c2ccccc2nc2c1ccc1ncccc12    74.7 µM
13. CCOC1CC(=O)c2c(Br)sc(Br)c21 (stereo unspecified)    49.6 µM
14. CCSC1=CC(=O)c2nc3ccccc3c3ccnc1c23    4 µM
15. CC(=O)OC[C@]1(C(=O)C(O)c2ccoc2)[C@H](C)CC[C@@]23COC(=O)C2=CCC[C@@H]31 (stereo partly specified)    > 10 µM
16. COc1cc(OCc2ccc3oc(=O)c(-c4ccccc4)nc3c2)cc(OC)c1OC    > 100 µM
17. COP(=O)(O)/C=C/C(NC(=O)C(Cl)(Cl)Cl)c1ccccc1 (stereo unspecified)    > 100 µM
18. CCOC(=O)c1[nH]cc(C)c1-c1ccn(-c2ccccc2)c1    > 100 µM
19. O=C(CC(=O)CC(O)(C(F)(F)F)C(F)(F)F)CC(O)(C(F)(F)F)C(F)(F)F    > 10 µM
20. O=C(NC(Cc1c[nH]c2ccccc12)C(=O)O)/C(=C/c1ccccc1O)NC(=O)c1ccccc1 (stereo unspecified)    > 100 µM
21. O=C1CCSSCCC(=O)NCCN1    > 100 µM
